Molecular target: Substance-P receptor (Homo sapiens, UniProt P25103)
Sequence (P25103 whole entry): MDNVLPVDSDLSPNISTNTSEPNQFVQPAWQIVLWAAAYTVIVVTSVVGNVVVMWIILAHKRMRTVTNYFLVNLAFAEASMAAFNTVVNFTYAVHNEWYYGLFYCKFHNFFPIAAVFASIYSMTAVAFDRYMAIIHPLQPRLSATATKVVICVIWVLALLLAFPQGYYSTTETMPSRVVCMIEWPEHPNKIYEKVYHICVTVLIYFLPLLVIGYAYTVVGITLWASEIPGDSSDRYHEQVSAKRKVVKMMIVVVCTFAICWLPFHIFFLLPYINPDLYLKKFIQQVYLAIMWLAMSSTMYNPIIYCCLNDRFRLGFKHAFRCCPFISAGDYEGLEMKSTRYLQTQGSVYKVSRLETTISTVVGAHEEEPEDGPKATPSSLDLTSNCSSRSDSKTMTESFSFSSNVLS
Assay: Displacement of [125I]-labeled substance P from the cloned human NK1 receptor expressed in CHO cells
Assay type: cell-based

COMPOUND | IC50 / nM
CC(C(=O)N[C@]1(c2ccccc2)CC[C@@H](N2CCC3(CCOC3)CC2)CC1)c1cc(C(F)(F)F)cc(C(F)(F)F)c1 (some centres undefined) | 0.34
CC1(c2cc(C(F)(F)F)cc(C(F)(F)F)c2)CCN([C@]2(c3ccccc3)CC[C@@H](N3CCC4(CCOC4)CC3)CC2)C1=O (some centres undefined) | 0.33
O=C1N([C@]2(c3ccccc3)CC[C@@H](N3CCC4(CCOC4)CC3)CC2)CCC1(O)c1cc(C(F)(F)F)cc(C(F)(F)F)c1 (some centres undefined) | 0.66
CC(C(=O)N[C@]1(c2ccccc2)CC[C@@H](N2CCN(c3ccccc3)C(=O)C2)CC1)c1cc(C(F)(F)F)cc(C(F)(F)F)c1 (some centres undefined) | 0.62

----------
Target: UniProt Q12809
Sequence (Q12809 whole entry): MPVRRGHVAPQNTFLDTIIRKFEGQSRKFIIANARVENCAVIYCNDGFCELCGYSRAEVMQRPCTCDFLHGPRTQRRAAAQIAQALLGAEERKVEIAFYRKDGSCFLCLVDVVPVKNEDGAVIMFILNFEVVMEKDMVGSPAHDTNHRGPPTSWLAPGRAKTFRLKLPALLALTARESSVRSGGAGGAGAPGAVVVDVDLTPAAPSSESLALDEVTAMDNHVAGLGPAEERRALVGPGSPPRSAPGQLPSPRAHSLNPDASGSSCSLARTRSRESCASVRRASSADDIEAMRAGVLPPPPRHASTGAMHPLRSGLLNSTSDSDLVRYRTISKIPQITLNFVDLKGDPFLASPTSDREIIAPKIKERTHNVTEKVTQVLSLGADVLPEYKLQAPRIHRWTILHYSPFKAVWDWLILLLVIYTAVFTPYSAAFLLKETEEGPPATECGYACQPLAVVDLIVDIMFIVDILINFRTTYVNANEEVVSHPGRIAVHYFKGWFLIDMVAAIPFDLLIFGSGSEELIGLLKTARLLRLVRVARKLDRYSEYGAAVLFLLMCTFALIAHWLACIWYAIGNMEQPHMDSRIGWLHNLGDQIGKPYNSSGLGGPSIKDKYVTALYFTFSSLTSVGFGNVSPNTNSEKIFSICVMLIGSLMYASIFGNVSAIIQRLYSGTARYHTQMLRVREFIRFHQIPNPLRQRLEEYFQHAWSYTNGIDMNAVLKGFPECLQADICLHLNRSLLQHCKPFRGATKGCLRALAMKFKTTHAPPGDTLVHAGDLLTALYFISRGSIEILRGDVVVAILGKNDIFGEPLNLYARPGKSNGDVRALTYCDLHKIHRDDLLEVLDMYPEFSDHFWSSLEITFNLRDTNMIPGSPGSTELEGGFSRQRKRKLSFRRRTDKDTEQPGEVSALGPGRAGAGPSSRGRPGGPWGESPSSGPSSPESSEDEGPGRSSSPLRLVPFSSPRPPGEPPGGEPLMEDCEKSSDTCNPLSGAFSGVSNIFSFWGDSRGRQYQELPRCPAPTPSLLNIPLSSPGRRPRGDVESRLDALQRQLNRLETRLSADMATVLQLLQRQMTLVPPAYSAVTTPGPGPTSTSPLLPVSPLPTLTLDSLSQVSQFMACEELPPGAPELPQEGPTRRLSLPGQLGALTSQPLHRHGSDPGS
Assay: Displacement of labelled MK-499 from cloned channel hERG expressed in HEK cells
Format: cell-based, HEK293

COMPOUND | Ki, nM
O=C1CN([C@H]2CC[C@](c3ccccc3)(N3CCC(c4cc(C(F)(F)F)cc(C(F)(F)F)c4)C3=O)CC2)CCN1c1ccccc1 (stereo partly drawn) | 2000
O=C1CN([C@H]2CC[C@](c3ccccc3)(N3CCCC(c4cc(C(F)(F)F)cc(C(F)(F)F)c4)C3=O)CC2)CCN1c1ccccc1 (stereo partly drawn) | 6530
CC1(c2cc(C(F)(F)F)cc(C(F)(F)F)c2)CCN([C@]2(c3ccccc3)CC[C@@H](N3CCC4(CCOC4)CC3)CC2)C1=O (stereo partly drawn) | 364
O=C1C(c2cc(C(F)(F)F)cc(C(F)(F)F)c2)CCCN1[C@]1(c2ccccc2)CC[C@@H](N2CCC3(CCOC3)CC2)CC1 (stereo partly drawn) | 798
CC(C(=O)N[C@]1(c2ccccc2)CC[C@@H](N2CCN(c3ccccc3)C(=O)C2)CC1)c1cc(C(F)(F)F)cc(C(F)(F)F)c1 (stereo partly drawn) | 3710
O=C1C(c2cc(C(F)(F)F)cc(C(F)(F)F)c2)CCN1[C@]1(c2ccccc2)CC[C@@H](N2CCC3(CCOC3)CC2)CC1 (stereo partly drawn) | 327
CN(C)[C@H]1CC[C@](c2ccccc2)(N2CCC(c3cc(C(F)(F)F)cc(C(F)(F)F)c3)C2=O)CC1 (stereo partly drawn) | 984
O=C1N([C@]2(c3ccccc3)CC[C@@H](N3CCC4(CCOC4)CC3)CC2)CCC1(O)c1cc(C(F)(F)F)cc(C(F)(F)F)c1 (stereo partly drawn) | 862

----------
log10 of ED50 for assorted compounds
System: Gerbil, jird
Test: Inhibition of GR-73632-induced foot-tapping in iv dosed gerbils after 0 h
Assay type: functional
Conditions: Meriones, read-out: ID50 (the source's name)
MEASURED ATTRIBUTE: log10 of ED50 (log10 of the value in mg/kg)

COMPOUND | MEASURED VALUE
CC1(c2cc(C(F)(F)F)cc(C(F)(F)F)c2)CCN([C@]2(c3ccccc3)CC[C@@H](N3CCN(c4ccccc4)C(=O)C3)CC2)C1=O (stereo not given in full) | -0.66
CC(C(=O)N[C@]1(c2ccccc2)CC[C@@H](N2CCN(c3ccccc3)C(=O)C2)CC1)c1cc(C(F)(F)F)cc(C(F)(F)F)c1 (stereo not given in full) | -0.89
O=C1C(c2cc(C(F)(F)F)cc(C(F)(F)F)c2)CCN1[C@]1(c2ccccc2)CC[C@@H](N2CCC3(CCOC3)CC2)CC1 (stereo not given in full) | -0.46
O=C1CN([C@H]2CC[C@](c3ccccc3)(N3CCC(c4cc(C(F)(F)F)cc(C(F)(F)F)c4)C3=O)CC2)CCN1c1ccccc1 (stereo not given in full) | -1.05
CC(C(=O)N[C@]1(c2ccccc2)CC[C@@H](N2CCC3(CCOC3)CC2)CC1)c1cc(C(F)(F)F)cc(C(F)(F)F)c1 (stereo not given in full) | 0.16

----------
Below, each entry is listed with its recorded pIC50.
Target: Substance-P receptor (Homo sapiens)
Experiment: Displacement of [125I]-labeled substance P from the cloned human NK1 receptor expressed in CHO cells
pIC50: −log10 of the molar value.

COMPOUND | pIC50
O=C1CN([C@H]2CC[C@](c3ccccc3)(N3CCC(c4cc(C(F)(F)F)cc(C(F)(F)F)c4)C3=O)CC2)CCN1c1ccccc1 (some centres undefined) | 8.96
COC1(c2cc(C(F)(F)F)cc(C(F)(F)F)c2)CCN([C@]2(c3ccccc3)CC[C@@H](N3CCC4(CCOC4)CC3)CC2)C1=O (some centres undefined) | 9.32
CC1(c2cc(C(F)(F)F)cc(C(F)(F)F)c2)CCN([C@]2(c3ccccc3)CC[C@@H](N3CCN(c4ccccc4)C(=O)C3)CC2)C1=O (some centres undefined) | 9.32
O=C1C(c2cc(C(F)(F)F)cc(C(F)(F)F)c2)CCN1[C@]1(c2ccccc2)CC[C@@H](N2CCC3(CCOC3)CC2)CC1 (some centres undefined) | 9.30
